B1: mRNA-splicing (parent)
chain: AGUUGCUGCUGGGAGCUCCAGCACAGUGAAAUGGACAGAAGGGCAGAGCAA

# Variants of: B1
# assay_info: exon inclusion enrichment index; higher = more inclusion; WT1 exon 5 minigene, HEK293
Could you label it MET if measured exon inclusion enrichment index is 0.1 or higher, and NOT MET otherwise?

**Query** Item G5A C6G U7G C9A A45C G46A with exon inclusion enrichment index of 0.1 or above?
**Result** NOT MET

**Query** Item C6A U7A C9A U10A G21C C22A with exon inclusion enrichment index of 0.1 or above?
**Result** MET

**Query** Item G5C C6U G8C C9U U10C A35C C36A with exon inclusion enrichment index of 0.1 or above?
**Result** MET

**Query** Item G5U G8U C9U A45C with exon inclusion enrichment index of 0.1 or above?
**Result** MET

**Query** Item G5A C6U U7A G8U C9A G33C with exon inclusion enrichment index of 0.1 or above?
**Result** MET
